# experimental.protocol: Clinical pharmacokinetics, repeat inhaled dose in healthy subjects (Cohort 2)
# Format: in vivo, human
# details: human, inhaled doses; read-out: C max values obtained with inhaled doses
reported.endpoint: Cmax

INPUT: For Cc1cc(N2CCN(c3ccc(C(=O)Nc4ccc(F)cc4)cc3)CC2)ccc1OC[C@@H]1CO[C@@](Cn2cncn2)(c2ccc(F)cc2F)C1 [PC945] , what is its reported Cmax?
OUTPUT: < 2 nM

###

# Test system: CYP3A4/5
# experimental.protocol: CYP inhibition in pooled human liver microsomes
# Format: in vitro ADME
# details: substrate midazolam, without preincubation, pooled human liver microsomes
reported.endpoint: IC50 (nM)
Answers are plain numbers, in nM.

INPUT: Would you mind telling me what IC50 value was observed for `Cc1cc(N2CCN(c3ccc(C(=O)Nc4ccc(F)cc4)cc3)CC2)ccc1OC[C@@H]1CO[C@@](Cn2cncn2)(c2ccc(F)cc2F)C1` ?
OUTPUT: 85

###

# Test system: CYP3A4/5
# experimental.protocol: CYP inhibition in pooled human liver microsomes
# Assay type: in vitro ADME
# details: probe midazolam; substrate midazolam, without preincubation, pooled human liver microsomes
reported.endpoint: pIC50
Numbers only, as −log10 of the molar value.

INPUT: Which pIC50 is reported for this compound? CC[C@@H]([C@H](C)O)n1ncn(-c2ccc(N3CCN(c4ccc(OC[C@@H]5CO[C@@](Cn6cncn6)(c6ccc(F)cc6F)C5)cc4)CC3)cc2)c1=O [posaconazole, reference compound]
OUTPUT: 6.49

These data points were gathered from paper PMC7749516.
